Ki values for Tyrosine-protein kinase JAK3 (Homo sapiens, UniProt P52333), compiled from several publications.

Recorded Ki, per entry:
Nc1nn2cc(-c3cccnc3N3CCC[C@H]3CO)cnc2c1-c1ccccn1	> 5000 nM
CC(C)[C@H](C(=O)NCC(F)(F)F)n1ccc2cnc(-c3c[nH]c4ncncc34)nc21	< 500 nM
CC(C)[C@H](C)NC(=O)c1cc(N[C@@H](C)C(=O)NCC(F)(F)F)nc(-c2c[nH]c3ncncc23)n1	500 to 5000 nM

q: Look up Ki: Oc1ccccc1C1Nc2ccccc2-c2ccnc3[nH]cc1c23 (centres unmarked)
a: 250 to 2500 nM

q: Now consider Oc1ncc(C2Nc3ccccc3-c3ccnc4[nH]cc2c34)c(O)n1 (centres unmarked) .
a: > 2500 nM

q: Now consider CC(c1ccccc1)c1ncnc2[nH]ccc12 (centres unmarked) .
a: 500 to 5000 nM

q: Now consider Nc1cccc(Nc2nccc(-c3ccc(NC(=O)COc4ccccc4)cc3)n2)c1 .
a: ≤ 1000 nM

q: Now consider Nc1nn2cc(CCCNC3CCCCC3)cnc2c1-c1ccccn1 .
a: > 5000 nM

q: Now consider O=[N+]([O-])c1cc(C2Nc3ccccc3-c3ccnc4[nH]cc2c34)ccc1O (centres unmarked) .
a: 250 to 2500 nM

q: Now consider Nc1cccc(Nc2nccc(-c3ccc(NC(=O)CN4CCC(O)CC4)cc3)n2)c1 .
a: ≤ 1000 nM

q: Now consider C[C@@H](Nc1nc(-c2c[nH]c3ncncc23)nc2ccccc12)C(=O)NCC(F)(F)F .
a: < 500 nM

q: Now consider COc1cccc(Nc2nccc(-c3ccc4c(c3)NC(=O)CO4)n2)c1 .
a: < 1000 nM

q: Now consider C#CCN(C)C(=O)c1cccc(-c2cnc3c(-c4ccccn4)c(N)nn3c2)n1 .
a: > 5000 nM

q: Now consider Oc1ccc(C2Nc3ccccc3-c3ccnc4[nH]cc2c34)c(F)c1 (centres unmarked) .
a: ≤ 250 nM

###

pKi values for UniProtKB P52333, compiled from several publications.
pKi: −log10 of the molar value.

Recorded pKi, per entry:
NS(=O)(=O)c1ccc(Nc2nccc(-c3ccc4c(c3)N(Cc3ccncc3)C(=O)CO4)n2)cc1	> 6.00
CC(C)NC(=O)C(C)n1cc(-c2ncnc3[nH]ccc23)cn1 (centres unmarked)	6.30 to 7.00
CCCCC(CC)n1cc(-c2ncnc3[nH]ccc23)cn1 (centres unmarked)	> 7.00
CCN(CCO)C(=O)c1ccc(-c2cnc3c(-c4ccccn4)c(N)nn3c2)nc1	5.30 to 6.30
CCCN(CC)c1cc(-c2c(N)nn3cc(-c4ccncc4)cnc23)ncn1	> 6.30
CNC(=O)c1cc(N2CCC[C@@H]2C(=O)NCC(F)(F)F)nc(-c2c[nH]c3ncc(Cl)cc23)n1	≤ 7.00

q: Look up pKi: O=C(c1cc(-c2ncnc3[nH]ccc23)c[nH]1)N(CCC(F)(F)F)CC1CC1
a: > 7.00

q: Now consider CC(C)Nc1cc(-c2c(N)nn3cc(-c4ccncc4)cnc23)ncn1 .
a: > 6.30

###

pKi values for Tyrosine-protein kinase JAK3 (Homo sapiens), compiled from several publications.
pKi: −log10 of the molar value.

Recorded pKi, per entry:
CCC(CO)Nc1cc(-c2c(N)nn3cc(C)cnc23)ncn1 (stereo not shown)	5.30 to 6.30
O=C(Nc1ccnc(-c2cnn3cccnc23)c1)c1ccc(F)c(F)c1	5.30 to 6.30
CCCN(CC(F)(F)F)C(=O)c1ccc(-c2ncnc3[nH]ccc23)o1	> 7.00
CCC1c2ccccc2CCN1c1cc(-c2c(N)nn3cccnc23)ncn1 (stereo not shown)	6.30 to 7.00
COc1ccc(Nc2nc(N)n(-c3ncc(F)c(N[C@@H](C(=O)NCC(F)(F)F)C(C)C)n3)n2)cc1	5.00 to 6.00

q: Look up pKi: C[C@H](Nc1cc(N2CCCC2)nc(-c2c[nH]c3ncncc23)n1)C(=O)NCC(F)(F)F
a: < 5.30

q: Now consider CC(C)[C@@H](Nc1ccnc(-c2c[nH]c(=O)c(N)c2)n1)C(=O)NCC(F)(F)F .
a: 4.30 to 5.00

q: Now consider C[C@H](Nc1cc(-c2c(N)nn3cccnc23)nc(OC[C@@H]2CO2)n1)c1ccc(F)cc1 .
a: 5.30 to 6.30

q: Now consider Nc1nn2cc(C(=O)NCc3ccccc3)cnc2c1-c1ccccn1 .
a: < 5.30

q: Now consider N#CCN(Cc1ccc(F)cc1)C(=O)c1cc(-c2ncnc3[nH]ccc23)c[nH]1 .
a: > 7.00

q: Now consider O=C(c1cc(-c2ncnc3[nH]ccc23)c[nH]1)N1CCCC1C(F)(F)F (stereo not shown) .
a: 6.30 to 7.00

q: Now consider Cc1cnc2c(-c3cc(N[C@H](C)CO)ncn3)c(N)nn2c1 .
a: 5.30 to 6.30

###

pKi: −log10 of the molar value.
pKi values for Tyrosine-protein kinase JAK3 (Homo sapiens), compiled from several publications.

Recorded pKi, per entry:
CN1C(=O)COc2ccc(-c3ccnc(Nc4cccc(C(N)=O)c4)n3)cc21	> 6.00
N#CCCN(CC1CC1)C(=O)c1coc(-c2ncnc3[nH]ccc23)c1	> 7.00
COc1nc(N[C@@H](C)c2ccc(F)cc2F)cc(-c2c(N)nn3cccnc23)n1	> 8.00
CC(C)(C#N)CCCCc1ncnc2[nH]ccc12	5.30 to 6.30
CCCC(CCC)n1cc(-c2ncnc3[nH]ccc23)cn1	> 7.00

q: Look up pKi: Nc1ccc(C2=Nc3ccccc3-c3ccnc4[nH]cc2c34)cc1
a: ≥ 6.60

q: Now consider C[C@H](Nc1cc(C(=O)N(C)CCO)nc(-c2c[nH]c3ncncc23)n1)C(=O)NCC(F)(F)F .
a: 5.30 to 6.30

q: Now consider c1ccc(-c2cnoc2-c2c[nH]c3ncccc23)cc1 .
a: 6.00 to 6.70

q: Now consider NC(=O)c1cccc(Nc2nccc(-c3ccc4c(c3)N(Cc3cccnc3)C(=O)CO4)n2)c1 .
a: > 6.00

q: Now consider CN1CCN(C(=O)c2cccc(-c3cnc4c(-c5ccccn5)c(N)nn4c3)c2)CC1 .
a: < 5.30

q: Now consider C[C@H](Nc1cc(-c2cnn3cccnc23)nc(OCCN2CCCC2)n1)c1ccc(F)cc1F .
a: 7.00 to 8.00

q: Now consider COc1ccc(-c2cnc3c(-c4ccncc4)c(N)nn3c2)cc1 .
a: < 5.30

###

pKi: −log10 of the molar value.
pKi values for Tyrosine-protein kinase JAK3 (Homo sapiens), compiled from several publications.

Recorded pKi, per entry:
COC(=O)Nc1ccc(Nc2ncn(-c3ccnc(N4C[C@@H](C)N(C(C)=O)[C@@H](C)C4)c3)n2)cc1	6.00 to 8.00
c1ccc(Nc2ncn(-c3ccnc(N4CCCCCC4)c3)n2)cc1	> 8.00
Nc1nn2cc(-c3cccc(C(=O)N4CCC(N)C4)n3)cnc2c1-c1ccccn1 (stereo not shown)	5.30 to 6.30
COCCN(C)C(=O)c1cc(-c2ncnc3[nH]cc(C)c23)c[nH]1	5.30 to 6.30
Nc1nn2cc(-c3ccccc3-c3ccccc3)cnc2c1-c1ccccn1	< 5.30
Fc1cccnc1-c1cnc2[nH]cc(-c3oncc3-c3cccc(F)c3F)c2c1	6.00 to 6.70
c1cncc(C2Nc3ccccc3-c3ccnc4[nH]cc2c34)c1 (stereo not shown)	5.60 to 6.60
COC[C@H]1CCCN1c1cc(-c2c(N)nn3cc(C)cnc23)ncn1	5.30 to 6.30

q: Look up pKi: CCN(CC)c1cc(-c2c(N)nn3cc(-c4ccncc4)cnc23)ncn1
a: > 6.30

q: Now consider Nc1nn2cc(-c3ccncn3)cnc2c1-c1nncn1Cc1ccc(Cl)c(Cl)c1 .
a: < 5.30

q: Now consider O=C(NCC(F)(F)F)[C@H]1CCCN1c1ccnc(-c2ccc3ncsc3c2)n1 .
a: ≥ 6.00

###

Ki values for Tyrosine-protein kinase JAK3 (Homo sapiens, UniProt P52333), compiled from several publications.

Recorded Ki, per entry:
CC[C@H](C)Nc1cc(-c2c(N)nn3cc(C)cnc23)ncn1	0.5 to 5 µM
CC#CCCOc1nc(N[C@@H](C)c2ccc(F)cc2)cc(-c2c(N)nn3cccnc23)n1	0.1 to 0.5 µM
Cn1cc(-c2ncnc3[nH]ccc23)cc1C(=O)N(CC1CCC1)CC(F)(F)F	0.1 to 0.5 µM
CC(C)CCC(=O)Nc1nc(-c2ncnc3[nH]ccc23)cs1	< 0.1 µM
CC(C)(C)OC(=O)N1CCCC(C(=O)Nc2nc(-c3ncnc4[nH]ccc34)cs2)C1 (stereo not shown)	0.1 to 0.5 µM

q: Look up Ki: C=CCN(C(=O)CC(C)C)c1nc(-c2ncnc3[nH]ccc23)cs1
a: < 0.1 µM

q: Now consider N#CCCN(CC1CC1)C(=O)c1ccc(-c2ncnc3[nH]ccc23)o1 .
a: < 0.1 µM

q: Now consider Nc1nn2cc(-c3ccc(C(=O)N4CCC(CCO)CC4)cn3)cnc2c1-c1ccccn1 .
a: 0.5 to 5 µM

q: Now consider C[C@H](Nc1cc(-c2cnn3cccnc23)nc(OC2CCNC2)n1)c1ccc(F)cc1F (stereo partly shown) .
a: 0.1 to 0.5 µM

q: Now consider CCCn1cc(-c2ncnc3[nH]ccc23)cn1 .
a: 0.1 to 0.5 µM
